# targetOrTestSystem: GDP-bound KRAS wild-type protein (Homo sapiens, UniProt P01116)
# Sequence (P01116 whole entry): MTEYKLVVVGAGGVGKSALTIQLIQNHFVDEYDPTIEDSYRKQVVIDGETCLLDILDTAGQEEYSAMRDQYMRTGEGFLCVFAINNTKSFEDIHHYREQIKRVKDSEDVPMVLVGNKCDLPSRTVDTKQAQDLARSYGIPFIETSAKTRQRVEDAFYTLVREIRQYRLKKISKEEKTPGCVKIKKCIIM
# protocolDescription: Binding to KRAS by surface plasmon resonance (SPR), Single Cycle Kinetics
# conditionSummary: SPR, Single Cycle Kinetics, GDP-bound KRAS wild-type protein; read-out: KRAS KD
propertyName: Kd (nM)
Answer format: numeric, nM implied, no suffix.

## Input Identify measured Kd associated with CCC[C@H]1C(=O)N[C@@H]([C@@H](C)CC)C(=O)N(C)CC(=O)N(C)[C@H]2C/C=C\CCN(C2=O)[C@@H](Cc2ccc(C)cc2)C(=O)N(C)CC(=O)N[C@@H](CCc2cc(F)c(C(F)(F)F)c(F)c2)C(=O)N2CC3(CC3)C[C@H]2C(=O)NC2(CC(C)(C)C2)C(=O)N(C)[C@@H](CC(C)(C)C)C(=O)N(C)[C@H](C(=O)N(C)C)CC(=O)N1C
## Output 0.12

## Input Identify measured Kd associated with CC[C@H](C)[C@@H]1NC(=O)[C@H](CC2CC2)N(C)C(=O)C[C@@H](C(=O)N(C)C)N(C)C(=O)[C@H](C2CCCC2)N(C)C(=O)C2(CCC2)NC(=O)[C@@H]2C[C@@H](C)CN2C(=O)[C@H](CCc2ccc(C(F)(F)F)c(OC)c2)NC(=O)CN(C)C(=O)[C@H](Cc2ccc(C)cc2)N2CC/C=C\C[C@@H](C2=O)N(C)C(=O)CN(C)C1=O
## Output 0.13

## Input Identify measured Kd associated with CCO[C@@H]1C[C@H]2C(=O)NC3(CC(F)(F)C3)C(=O)N(C)[C@@H](C3CCCC3)C(=O)N3CCC[C@@H]3CC(=O)N(C)[C@@H](CC)C(=O)N[C@@H]([C@@H](C)CC)C(=O)N(C)CC(=O)N(C)[C@H]3C/C=C\CCN(C3=O)[C@@H](Cc3ccc(C(F)(F)F)cc3)C(=O)N(C)CC(=O)N[C@@H](CCc3cc(F)c(C(F)(F)F)c(F)c3)C(=O)N2C1
## Output 0.2

====

# targetOrTestSystem: GDP-bound KRAS wild-type protein (Homo sapiens)
# protocolDescription: Binding to KRAS by surface plasmon resonance (SPR), Single Cycle Kinetics
# conditionSummary: SPR Single Cycle Kinetics, GDP-bound KRAS wild-type protein, 1:1 binding model; read-out: KRAS KD
Where a SMILES comes first, the peptide text is derived from it. Bridges are numbered along the chain shown (N, C = ends). [ ]: non-standard residue; d: D form. The star is where a group is joined. hPhe(3-Cl-4-CF3) = N[C@@H](CCc1ccc(C(F)(F)F)c(Cl)c1)C(=O)O; NPrPhe(4-CF3) = CCCN[C@@H](Cc1ccc(C(F)(F)F)cc1)C(=O)O; Abu(4,4,4-F3) = N[C@@H](CC(F)(F)F)C(=O)O; NMeGly(cPent) = CN[C@H](C(=O)O)C1CCCC1; Hyp = O=C(O)[C@@H]1C[C@@H](O)CN1; NMeD = CN[C@@H](CC(=O)O)C(=O)O; NMeL = CN[C@@H](CC(C)C)C(=O)O; Morpholide = C1CN(*)CCO1; NMeA = CN[C@@H](C)C(=O)O; Ac5c = NC1(C(=O)O)CCCC1; Aze = O=C(O)[C@@H]1CCN1; NEtG = CCNCC(=O)O; Sar = CNCC(=O)O
propertyName: log10 Kd (log10 of the value in nM)
Log10 applied to Kd; unit prior to transform: nM.

## Input Report the value of log10 Kd obtained on GDP-bound KRAS wild-type protein (Homo sapiens) for CCCN1C(=O)[C@@H]2CCN2C(=O)[C@H](C)N(C)C(=O)[C@H]([C@@H](C)CC)NC(=O)[C@H](CC(C)C)N(C)C(=O)C[C@@H](C(=O)N2CCOCC2)N(C)C(=O)[C@H](C2CCCC2)N(C)C(=O)C2(CCCC2)NC(=O)[C@@H]2CCCN2C(=O)[C@H](CCc2ccc(C(F)(F)F)c(Cl)c2)NC(=O)CN(C)C(=O)[C@@H]1Cc1ccc(C(F)(F)F)cc1 [PP0053] ([NMeL]I[NMeA][Aze][NPrPhe(4-CF3)][Sar][hPhe(3-Cl-4-CF3)]P[Ac5c][NMeGly(cPent)][NMeD]-Morpholide; lactam N-11) .
## Output -0.92

## Input Report the value of log10 Kd obtained on GDP-bound KRAS wild-type protein (Homo sapiens) for CCCN1C(=O)CN(C)C(=O)CN(CC)C(=O)[C@H](CC(F)(F)F)NC(=O)[C@H](CC(C)C)N(C)C(=O)C[C@@H](C(=O)N2CCOCC2)N(C)C(=O)[C@H](C2CCCC2)N(C)C(=O)C2(CCCC2)NC(=O)[C@@H]2CCCN2C(=O)[C@H](CCc2ccc(C(F)(F)F)c(Cl)c2)NC(=O)CN(C)C(=O)[C@@H]1Cc1ccc(C(F)(F)F)cc1 [PP0291] ([NMeL][Abu(4,4,4-F3)][NEtG][Sar][NPrPhe(4-CF3)][Sar][hPhe(3-Cl-4-CF3)]P[Ac5c][NMeGly(cPent)][NMeD]-Morpholide; lactam N-11) .
## Output 0.34

## Input Report the value of log10 Kd obtained on GDP-bound KRAS wild-type protein (Homo sapiens) for CC[C@H](C)[C@@H]1NC(=O)[C@H](CC(C)C)N(C)C(=O)C[C@@H](C(=O)N2CCOCC2)N(C)C(=O)[C@H](C2CCCC2)N(C)C(=O)C2(CCC2)NC(=O)[C@@H]2CCCN2C(=O)[C@H](CCc2cc(F)c(C(F)(F)F)c(F)c2)NC(=O)CN(C)C(=O)[C@H](Cc2ccc(C(F)(F)F)cc2)N2CCCC[C@@H](C2=O)N(C)C(=O)CN(C)C1=O [PP0560] .
## Output -1.30

## Input Report the value of log10 Kd obtained on GDP-bound KRAS wild-type protein (Homo sapiens) for CCCN1C(=O)CN(C)C(=O)CN(C)C(=O)[C@H]([C@@H](C)CC)NC(=O)[C@H](CC(C)C)N(C)C(=O)C[C@@H](C(=O)N2CCOCC2)N(C)C(=O)[C@H](C2CCCC2)N(C)C(=O)C2(CCCC2)NC(=O)[C@@H]2C[C@@H](OCC)CN2C(=O)[C@H](CCc2ccc(C(F)(F)F)c(Cl)c2)NC(=O)CN(C)C(=O)[C@@H]1Cc1ccc(C(F)(F)F)cc1 [PP0233] ([NMeL]I[Sar][Sar][NPrPhe(4-CF3)][Sar][hPhe(3-Cl-4-CF3)][Hyp](Et)[Ac5c][NMeGly(cPent)][NMeD]-Morpholide; lactam N-11) .
## Output -1.28

## Input Report the value of log10 Kd obtained on GDP-bound KRAS wild-type protein (Homo sapiens) for C#CCN1CC(=O)N(C)[C@H]2C/C=C\CCN(C2=O)[C@@H](Cc2ccc(C)cc2)C(=O)N(C)CC(=O)N[C@@H](CCc2ccc(C(F)(F)F)c(Cl)c2)C(=O)N2C[C@H](OCC)C[C@H]2C(=O)NC2(CC(C)(C)C2)C(=O)N(C)[C@@H](C2CCCC2)C(=O)N(C)[C@H](C(=O)N(C)C)CC(=O)N(C)[C@@H](CCC)C(=O)N[C@@H](CC(C)C)C1=O [PP2526] .
## Output 0.60

====

# targetOrTestSystem: UniProt P01116
# protocolDescription: Binding to KRAS by surface plasmon resonance (SPR), Single Cycle Kinetics
# conditionSummary: SPR Single Cycle Kinetics, GDP-bound KRAS wild-type protein, 1:1 binding model; read-out: KRAS KD
*1 amine or outer side, *2 acyl side, *3 side chain or, on linkers, in order; H or OH if unused. Where a SMILES comes first, the peptide text is derived from it. Bridges are numbered along the chain shown (N, C = ends). [ ]: non-standard residue; d: D form. The star is where a group is joined. hPhe(3-Cl-4-CF3) = N[C@@H](CCc1ccc(C(F)(F)F)c(Cl)c1)C(=O)O; NPrPhe(4-CF3) = CCCN[C@@H](Cc1ccc(C(F)(F)F)cc1)C(=O)O; X18 = Cc1ccc(C[C@@H](C(=O)[*:2])N(CC(C)C)[*:1])cc1; NMeGly(cPent) = CN[C@H](C(=O)O)C1CCCC1; Hyp = O=C(O)[C@@H]1C[C@@H](O)CN1; NMeD = CN[C@@H](CC(=O)O)C(=O)O; NMeL = CN[C@@H](CC(C)C)C(=O)O; NMeNva = CCC[C@H](NC)C(=O)O; Morpholide = C1CN(*)CCO1; NMeA = CN[C@@H](C)C(=O)O; Ac5c = NC1(C(=O)O)CCCC1; Aze = O=C(O)[C@@H]1CCN1; Ac4c = NC1(C(=O)O)CCC1; Sar = CNCC(=O)O
Please go through the items and note down their pKd.
pKd is defined as minus the log10 of a concentration measured in mol/L.

## Input Identify measured pKd associated with CCCN1C(=O)CN(C)C(=O)CN(C)C(=O)[C@H]([C@@H](C)CC)NC(=O)[C@H](CC(C)C)N(C)C(=O)C[C@@H](C(=O)N2CCOCC2)NC(=O)[C@H](C2CCCC2)N(C)C(=O)C2(CCCC2)NC(=O)[C@@H]2C[C@@H](OCC)CN2C(=O)[C@H](CCc2ccc(C(F)(F)F)c(Cl)c2)NC(=O)CN(C)C(=O)[C@@H]1Cc1ccc(C(F)(F)F)cc1 [PP0323] ([NMeL]I[Sar][Sar][NPrPhe(4-CF3)][Sar][hPhe(3-Cl-4-CF3)][Hyp](Et)[Ac5c][NMeGly(cPent)]D-Morpholide; lactam N-11)
## Output 9.60

## Input Identify measured pKd associated with CC[C@H](C)[C@@H]1NC(=O)[C@H](CC(C)C)N(C)C(=O)C[C@@H](C(=O)N2CCOCC2)N(C)C(=O)[C@H](C2CCCC2)N(C)C(=O)C2(CCCC2)NC(=O)[C@@H]2CCCN2C(=O)[C@H](CCc2ccc(C(F)(F)F)c(Cl)c2)NC(=O)CN(C)C(=O)[C@H](Cc2ccc(C)cc2)N(CC(C)C)C(=O)[C@@H]2CCN2C(=O)[C@H](C)N(C)C1=O [PP0056] ([NMeL]I[NMeA][Aze][X18][Sar][hPhe(3-Cl-4-CF3)]P[Ac5c][NMeGly(cPent)][NMeD]-Morpholide; lactam N-11)
## Output 8.54

## Input Identify measured pKd associated with CCO[C@@H]1C[C@H]2C(=O)NC3(CC(C)(C)C3)C(=O)N(C)[C@@H](C(CC)CC)C(=O)N(C)[C@H](C(=O)N3CCCCC3)CC(=O)N(C)[C@@H](COC)C(=O)N[C@@H]([C@@H](C)CC)C(=O)N(C)CC(=O)N(C)[C@H]3C/C=C\CCN(C3=O)[C@@H](Cc3ccc(C(F)(F)F)cc3)C(=O)N(C)CC(=O)N[C@@H](CCc3cc(F)c(C(F)(F)F)c(F)c3)C(=O)N2C1
## Output 9.09

## Input Identify measured pKd associated with CCC[C@H]1C(=O)N[C@@H]([C@@H](C)CC)C(=O)N(C)[C@@H](C)C(=O)N2CC[C@H]2C(=O)N(CCC)[C@@H](Cc2ccc(C(F)(F)F)cc2)C(=O)N(C)CC(=O)N[C@@H](CCc2ccc(C(F)(F)F)c(Cl)c2)C(=O)N2CCC[C@H]2C(=O)NC2(CCCC2)C(=O)N(C)[C@@H](C2CCCC2)C(=O)N(C)[C@H](C(=O)N2CCOCC2)CC(=O)N1C [PP0193] ([NMeNva]I[NMeA][Aze][NPrPhe(4-CF3)][Sar][hPhe(3-Cl-4-CF3)]P[Ac5c][NMeGly(cPent)][NMeD]-Morpholide; lactam N-11)
## Output 9.77

## Input Identify measured pKd associated with CCCN1C(=O)[C@@H]2CCN2C(=O)CN(C)C(=O)[C@H]([C@@H](C)CC)NC(=O)[C@H](CC(C)C)N(C)C(=O)C[C@@H](C(=O)N2CCOCC2)N(C)C(=O)[C@H](C2CCCC2)N(C)C(=O)C2(CCC2)NC(=O)[C@@H]2C[C@@H](OCC)CN2C(=O)[C@H](CCc2ccc(C(F)(F)F)c(Cl)c2)NC(=O)CN(C)C(=O)[C@@H]1Cc1ccc(C(F)(F)F)cc1 [PP0411] ([NMeL]I[Sar][Aze][NPrPhe(4-CF3)][Sar][hPhe(3-Cl-4-CF3)][Hyp](Et)[Ac4c][NMeGly(cPent)][NMeD]-Morpholide; lactam N-11)
## Output 10.34
